Provenance of the data: patent US10258602B2

- target-under-test: human growth hormone secretagogue receptor (hGHS-R1a) (Homo sapiens)
- Sequence (Q92847 whole entry): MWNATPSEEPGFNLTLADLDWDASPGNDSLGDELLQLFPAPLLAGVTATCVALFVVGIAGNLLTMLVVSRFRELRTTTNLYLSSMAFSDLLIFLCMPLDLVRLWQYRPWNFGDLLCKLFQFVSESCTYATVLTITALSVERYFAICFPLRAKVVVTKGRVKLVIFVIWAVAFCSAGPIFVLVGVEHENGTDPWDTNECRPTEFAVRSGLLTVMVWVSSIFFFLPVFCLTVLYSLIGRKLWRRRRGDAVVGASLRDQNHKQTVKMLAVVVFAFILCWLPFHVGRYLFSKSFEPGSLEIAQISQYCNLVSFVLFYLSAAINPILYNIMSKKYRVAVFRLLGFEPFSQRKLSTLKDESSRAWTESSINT
- assay-details: Competitive radioligand binding assay (ghrelin receptor), standard method A
- condition-description: binding activity at the human ghrelin receptor, standard method A
pKi: −log10 of the molar value.
measured-property: pKi

- compound: "C[C@@H]1CN[C@@H](C2CC2)C(=O)N(C)[C@H](C)C(=O)N[C@H](Cc2ccc(Cl)cc2)C(=O)NCCCc2cccc(F)c2O1"
  pKi: "≥ 7.00"
- compound: "C[C@@H]1CN[C@@H](C2CC2)C(=O)N(C)[C@H](C)C(=O)N[C@H](Cc2cccc(O)c2)C(=O)NCCCc2ncccc2O1"
  pKi: "≥ 7.00"

Exercise: Look at this compound and give its reported pKi. `C[C@@H]1C(=O)N[C@H](Cc2cccs2)C(=O)NCCCc2ncccc2OCCN[C@@H](C2CC2)C(=O)N1C`
Solution: ≥ 7.00

Exercise: Follow-up entry: `CCC[C@@H]1NC[C@@H](C)Oc2ccccc2CCCNC(=O)[C@@H](Cc2ccc(OC)cc2)NC(=O)[C@@H](C)N(C)C1=O`
Solution: ≥ 7.00

Exercise: Can you check `C[C@@H]1CNC(=O)[C@@H](Cc2ccc(F)cc2)NC(=O)[C@@H](C)N(C)C(=O)[C@H](C2CC2)NC[C@@H](C)Oc2ccccc2C1` next?
Solution: ≥ 7.00

Exercise: Here is the next compound: CC1CNC(C2CC2)C(=O)N(C)C(C)C(=O)NC(C(C)(C)C)C(=O)NCCCc2cccc(F)c2O1 (stereo not drawn)
Solution: ≥ 6.30
